Target: KDR endogenously expressed on human umbilical vein endothelial cells (HUVEC) (human, UniProt P35968 20-1356); note: test concentration or dose not given here
Sequence (P35968 20-1356): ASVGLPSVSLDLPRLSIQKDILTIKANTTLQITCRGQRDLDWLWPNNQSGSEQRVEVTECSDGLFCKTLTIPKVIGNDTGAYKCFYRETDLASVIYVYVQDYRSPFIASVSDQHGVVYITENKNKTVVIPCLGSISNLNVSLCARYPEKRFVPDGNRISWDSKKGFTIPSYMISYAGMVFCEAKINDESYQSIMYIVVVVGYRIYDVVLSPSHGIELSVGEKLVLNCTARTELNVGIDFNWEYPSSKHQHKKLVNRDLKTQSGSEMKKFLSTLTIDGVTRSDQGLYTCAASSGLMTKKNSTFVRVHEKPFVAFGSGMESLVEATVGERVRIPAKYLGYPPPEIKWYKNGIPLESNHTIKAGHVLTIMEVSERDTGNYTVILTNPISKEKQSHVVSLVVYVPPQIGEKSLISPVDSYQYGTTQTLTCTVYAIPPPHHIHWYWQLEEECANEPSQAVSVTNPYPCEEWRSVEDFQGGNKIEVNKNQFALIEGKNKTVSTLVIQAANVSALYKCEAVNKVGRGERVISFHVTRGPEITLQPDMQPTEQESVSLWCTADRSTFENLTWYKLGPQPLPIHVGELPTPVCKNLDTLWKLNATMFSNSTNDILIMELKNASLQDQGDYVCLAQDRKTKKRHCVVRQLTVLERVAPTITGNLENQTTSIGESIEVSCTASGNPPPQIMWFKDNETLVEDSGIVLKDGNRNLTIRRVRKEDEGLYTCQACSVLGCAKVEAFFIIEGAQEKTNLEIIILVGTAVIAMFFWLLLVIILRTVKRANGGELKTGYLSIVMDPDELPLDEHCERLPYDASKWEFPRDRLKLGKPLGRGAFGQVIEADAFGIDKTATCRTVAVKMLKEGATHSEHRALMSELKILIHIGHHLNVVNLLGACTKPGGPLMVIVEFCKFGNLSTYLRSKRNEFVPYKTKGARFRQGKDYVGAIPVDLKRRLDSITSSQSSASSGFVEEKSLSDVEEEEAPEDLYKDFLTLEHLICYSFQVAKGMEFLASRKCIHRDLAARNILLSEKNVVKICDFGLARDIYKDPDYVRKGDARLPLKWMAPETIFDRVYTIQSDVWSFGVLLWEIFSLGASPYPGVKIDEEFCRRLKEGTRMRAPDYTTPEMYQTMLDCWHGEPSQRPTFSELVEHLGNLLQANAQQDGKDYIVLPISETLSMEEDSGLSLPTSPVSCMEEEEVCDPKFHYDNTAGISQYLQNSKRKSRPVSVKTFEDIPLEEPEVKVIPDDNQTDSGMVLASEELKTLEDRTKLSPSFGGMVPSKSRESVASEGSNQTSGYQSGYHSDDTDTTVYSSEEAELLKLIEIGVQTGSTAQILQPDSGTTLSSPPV
Assay: cell-based or functional assay
parameter: VEGF-E-mediated Survival % Inhibition (n = 1) (%)
One number for each entry, in %.

Example entries and their recorded answers appear below.
[
  {
    "binder": "21A1 (antibody, V domains shown, Fully human mAb from XenoMouse hybridoma, tested as hybridoma supernatant) VH: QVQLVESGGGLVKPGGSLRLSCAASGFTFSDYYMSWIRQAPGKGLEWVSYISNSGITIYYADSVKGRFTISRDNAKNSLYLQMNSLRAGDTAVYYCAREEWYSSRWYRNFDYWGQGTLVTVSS VL: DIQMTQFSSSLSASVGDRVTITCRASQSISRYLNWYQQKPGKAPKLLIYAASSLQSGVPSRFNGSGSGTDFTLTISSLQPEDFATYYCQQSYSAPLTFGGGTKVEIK",
    "value": 45
  },
  {
    "binder": "24B3 (antibody, V domains shown, Fully human mAb from XenoMouse hybridoma, tested as hybridoma supernatant) VH: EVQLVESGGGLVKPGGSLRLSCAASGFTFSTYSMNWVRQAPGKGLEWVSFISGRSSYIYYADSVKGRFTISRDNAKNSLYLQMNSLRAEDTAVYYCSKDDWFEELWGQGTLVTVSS VL: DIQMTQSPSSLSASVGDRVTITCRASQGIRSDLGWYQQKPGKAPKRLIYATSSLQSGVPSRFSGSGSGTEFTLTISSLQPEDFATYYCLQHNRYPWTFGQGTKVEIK",
    "value": 65
  }
]

Please examine the following record next.
Tell me the measured VEGF-E-mediated Survival % Inhibition (n = 1) of 33D5 (antibody, V domains shown, Fully human mAb from XenoMouse hybridoma, tested as hybridoma supernatant) VH: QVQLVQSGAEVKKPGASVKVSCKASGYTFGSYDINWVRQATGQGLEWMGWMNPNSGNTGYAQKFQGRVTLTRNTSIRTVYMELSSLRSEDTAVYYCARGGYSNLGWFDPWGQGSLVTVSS VL: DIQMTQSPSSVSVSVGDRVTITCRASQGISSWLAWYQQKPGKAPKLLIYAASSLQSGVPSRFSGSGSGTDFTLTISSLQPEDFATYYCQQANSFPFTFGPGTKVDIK , please.
-2
